Tested on: MCF7
PROCEDURE_SUMMARY: NCI tumour cell line growth inhibition, 48 h
Calls of active or inactive are those of the source. Rule as the data show it: active = GI50 up to about 1.1 µM and inactive = higher.
Pick one and only one: active, inactive

Field: example entries. Status: answers known.
c1ccc2cc3c(cc2c1)OP1(Oc2cccc4cccnc24)(O3)Oc2cc3ccccc3cc2O1 :: inactive
CCCCOc1ccc(NC(=N)Nc2ccc(Cl)cc2)cc1 :: active
COc1ccc(/N=C(Nc2ccc(OC)cc2)/C(=N/c2ccc(OC)cc2)Nc2ccc(OC)cc2)cc1 :: inactive
[N-]=[N+]=CC(=O)COC(=O)c1ccccc1 :: inactive
CC(C)(C)c1cc(C2COC(=O)COCCOCC(=O)OCCOCCO2)cc(C(C)(C)C)c1O (stereo unspecified) :: inactive

stdin: // param item: `COc1c(O)cc2oc(-c3ccc(O)cc3)cc(=O)c2c1O` ; yields the recorded call
stdout: inactive

stdin: // param item: `C/C(=N\Nc1nc2cc(F)ccc2s1)c1ccccn1` ; yields the recorded call
stdout: active

stdin: // param item: Cc1ccc(OP2(=O)Oc3ccc4ccccc4c3CN2c2ccc(Cl)cc2)cc1C (stereo unspecified) ; yields the recorded call
stdout: inactive

stdin: // param item: `C1CN1c1nc(N2CC2)nc(N2CC2)n1` ; yields the recorded call
stdout: inactive

stdin: // param item: `COc1ccc(-n2c(=O)[nH]n(C(C)=O)c2=O)cc1` ; yields the recorded call
stdout: inactive

stdin: // param item: `Cc1ccsc1/C=N/Nc1ncccn1` ; yields the recorded call
stdout: active
